Assay summary: qHTS assay to identify small molecule antagonists of the estrogen related receptor (ERR) signaling pathway from Tox21 library - cell viability counter screen (AID 1224834); also: nearly all actives have a fitted effect of over 30% in size
Test conditions: ERR reporter cells viability, CellTiter-Fluor, 17.5 h; series mostly up to 92.4 µM
Results filed as inconclusive are left out. Calls of active or inactive are those of the source. Calls follow the shape of the dose curve; as a rule, active = well fitted cell-killing curve with a large enough effect in the repeat runs; inconclusive = weak or mixed curves; inactive = flat fitted curve, though single readings scatter.
Labels: active, inactive

- Molecule: "Nc1cccc2ccccc12"
  Label class: "inactive"
- Molecule: "CCC1(C2=NCCN2)Cc2ccccc2O1 (stereo not given)"
  Label class: "inactive"
- Molecule: "ClCc1ccccc1Cl"
  Label class: "inactive"
- Molecule: "OCCSSCCO"
  Label class: "inactive"
- Molecule: "CCCCCCCCCCCCCCCl"
  Label class: "inactive"
- Molecule: "C[C@H](N)[C@H](O)c1ccc(O)c(O)c1"
  Label class: "inactive"
- Molecule: "FC(Cl)(Cl)C(F)(Cl)Cl"
  Label class: "inactive"
- Molecule: "O=C(O)COc1cc(Cl)c(Cl)cc1Cl"
  Label class: "inactive"
- Molecule: "CC(Oc1cccc(Cl)c1)C(=O)O (stereo not given)"
  Label class: "inactive"
- Molecule: "CCC[N+](CCC)(CCC)CCC"
  Label class: "inactive"
- Molecule: "O=[N+]([O-])/C=C/c1ccccc1"
  Label class: "active"
- Molecule: "Nc1ccc2c(c1)Cc1ccccc1-2"
  Label class: "inactive"
- Molecule: "CC[N+]1(C)CCCC(OC(=O)C(O)(c2ccccc2)c2ccccc2)C1 (stereo not given)"
  Label class: "inactive"
- Molecule: "CCOC(=O)C1OC1(C)c1ccccc1 (stereo not given)"
  Label class: "inactive"
- Molecule: "C[N+]1(CCF)[C@@H]2CC[C@H]1CC(OC(=O)C(O)(c1ccccc1)c1ccccc1)C2 (stereo not given in full)"
  Label class: "inactive"
- Molecule: "SCc1ccccc1"
  Label class: "inactive"
- Molecule: "C1CS1"
  Label class: "inactive"
- Molecule: "O=C(NC(=O)c1cc(F)c(F)cc1Cl)Nc1cc(F)ccc1N1CCC(C(=O)O)CC1"
  Label class: "inactive"
- Molecule: "CCCN(CCC)c1c([N+](=O)[O-])cc(C(C)C)cc1[N+](=O)[O-]"
  Label class: "inactive"
- Molecule: "CCSCc1ccccc1OC(=O)NC"
  Label class: "inactive"
- Molecule: "CC(C)(C)NCC(O)c1ccccc1Cl (stereo not given)"
  Label class: "inactive"
- Molecule: "COCc1cnc(C2=NC(C)(C(C)C)C(=O)N2)c(C(=O)O)c1 (stereo not given)"
  Label class: "inactive"
- Molecule: "CCCCCCCCCCCCN(C)C"
  Label class: "inactive"
- Molecule: "O=C1NC(=O)C(=O)C(=O)N1"
  Label class: "inactive"
- Molecule: "CNC(=O)Oc1cccc(N=CN(C)C)c1"
  Label class: "inactive"

Values from PubChem BioAssay (Tox21)
